Reported values of MIC for individual entries
# Tested on: Chlamydia pneumoniae TW-183
# assay-method-text: In vitro test 3: inhibition of inclusion formation in HeLa 229 cells, about 5 times the inoculum of test 2, C. pneumoniae TW-183
# run-parameters: TW183, 72 h, read-out: Minimum inhibitory concentration TW-183
Numeric only. Scale: ng/mL

Answered cases to consult:
compound | target-or-system | MIC [ng/mL]
COC1C=COC2(C)Oc3c(C)c(O)c4c(=O)c(c5oc6cc(N7CCN(CC8OCCO8)CC7)cc(O)c6nc-5c4c3C2=O)NC(=O)C(C)=CC=CC(C)C(O)C(C)C(O)C(C)C(OC(C)=O)C1C (stereo not drawn) | Chlamydia pneumoniae TW-183 | 2.5
COC1C=COC2(C)Oc3c(C)c(O)c4c(=O)c(c5oc6cc(N7CCN(CC(C)C)CC7)cc(O)c6nc-5c4c3C2=O)NC(=O)C(C)=CC=CC(C)C(O)C(C)C(O)C(C)C(O)C1C (stereo not drawn) [Compound 5] | Chlamydia pneumoniae TW-183 | 1.25

Now consider the entry below.
Supply measured MIC of CCCN1CCN(c2cc(O)c3nc4c5c6c7c(C)c(O)c5c(=O)c(c-4oc3c2)NC(=O)C(C)=CC=CC(C)C(O)C(C)C(O)C(C)C(OC(C)=O)C(C)C(OC)C=COC(C)(O7)C6=O)CC1 (stereo not drawn) [Compound 3] in your reply.
5

----------
# Tested on: Chlamydia pneumoniae TW-183
# assay-method-text: In vitro test 3: inhibition of inclusion formation in HeLa 229 cells, about 5 times the inoculum of test 2, C. pneumoniae TW-183
# run-parameters: TW183, 72 h, read-out: Minimum inhibitory concentration TW-183
Reported values of MIC for individual entries
Numeric only. Scale: ng/mL

Answered cases to consult:
compound | MIC / ng/mL
COC1C=COC2(C)Oc3c(C)c(O)c4c(=O)c(c5oc6cc(N7CCN(C)CC7)cc(O)c6nc-5c4c3C2=O)NC(=O)C(C)=CC=CC(C)C(O)C(C)C(O)C(C)C(OC(C)=O)C1C (stereo not shown) | 0.63
COC1C=COC2(C)Oc3c(C)c(O)c4c(=O)c(c5oc6cc(N7CCN(CC(C)C)CC7)cc(O)c6nc-5c4c3C2=O)NC(=O)C(C)=CC=CC(C)C(O)C(C)C(O)C(C)C(OC(C)=O)C1C (stereo not shown) | 1.25
COC1C=COC2(C)Oc3c(C)c(O)c4c(=O)c(c5oc6cc(N7CCOCC7)cc(O)c6nc-5c4c3C2=O)NC(=O)C(C)=CC=CC(C)C(O)C(C)C(O)C(C)C(OC(C)=O)C1C (stereo not shown) | 0.63

Now consider the entry below.
Supply measured MIC of CC[C@H]1OC(=O)[C@H](C)[C@@H](O[C@H]2C[C@@](C)(OC)[C@@H](O)[C@H](C)O2)[C@H](C)[C@@H](O[C@@H]2O[C@H](C)C[C@H](N(C)C)[C@H]2O)[C@](C)(O)C[C@@H](C)CN(C)[C@H](C)[C@@H](O)[C@]1(C)O [Azithromycin, reference compound] in your reply.
250
